Biological target: Replicase polyprotein 1ab (Severe acute respiratory syndrome coronavirus 2, UniProt P0DTD1)
Assay: Inhibition of SARS-CoV-2 3CLp
MEASUREMENT_KIND: IC50

- MOLECULE: "Cn1cc2cc(/N=c3\\[nH]c(=O)n(Cc4cn(CCOCCOCC(=O)Nc5cccc6c5C(=O)N(C5CCC(=O)NC5=O)C6)nn4)c(=O)n3Cc3cc(F)c(F)cc3F)c(Cl)cc2n1 (stereo not given)"
  MEAS_VALUE: "< 100 nM"

Ask | Given the molecule Cn1cc2cc(/N=c3\[nH]c(=O)n(Cc4cn(CCC(=O)Nc5cccc6c5C(=O)N(C5CCC(=O)NC5=O)C6)nn4)c(=O)n3Cc3cc(F)c(F)cc3F)c(Cl)cc2n1 (stereo not given) , what is its reported IC50?
Reply | > 100 nM

Ask | Which IC50 value is on record for Cn1cc2cc(/N=c3\[nH]c(=O)n(Cc4cn(CCCCC(=O)Nc5cccc6c5C(=O)N(C5CCC(=O)NC5=O)C6)nn4)c(=O)n3Cc3cc(F)c(F)cc3F)c(Cl)cc2n1 (stereo not given) ?
Reply | < 100 nM

Ask | Form field: reported IC50 of Cn1cc2cc(/N=c3\[nH]c(=O)n(Cc4cn(CCOCC(=O)Nc5cccc6c5C(=O)N(C5CCC(=O)NC5=O)C6=O)nn4)c(=O)n3Cc3cc(F)c(F)cc3F)c(Cl)cc2n1 (stereo not given)
Reply | > 100 nM

Ask | // returns reported IC50 for input Cn1cc2cc(/N=c3\[nH]c(=O)n(Cc4cn(CCCCCCC(=O)Nc5cccc6c5C(=O)N(C5CCC(=O)NC5=O)C6)nn4)c(=O)n3Cc3cc(F)c(F)cc3F)c(Cl)cc2n1 (stereo not given)
Reply | > 100 nM

* * *

Experiment: Cmax in cynomolgus monkey at 5 mg/kg, po
Type: ADME, organism-based, Macaca fascicularis
Conditions: in vivo
MEASUREMENT_KIND: Cmax (nM)
Your answer is read as nM, so omit the unit and give the number.

Ask | Return reported Cmax; argument: `O=C(NC1CCCC1)C(=O)[C@H](C[C@@H]1CCNC1=O)NC(=O)[C@@H]1[C@H]2CCC[C@H]2CN1C(=O)[C@@H](NC(=O)C(F)(F)F)C1CCCCC1`
Reply | 102

* * *

Target: Protein cereblon/Replicase polyprotein 1ab (Severe acute respiratory syndrome coronavirus 2, UniProt P0DTD1+Q96SW2)
Sequence (Q96SW2 whole entry, other chains not shown): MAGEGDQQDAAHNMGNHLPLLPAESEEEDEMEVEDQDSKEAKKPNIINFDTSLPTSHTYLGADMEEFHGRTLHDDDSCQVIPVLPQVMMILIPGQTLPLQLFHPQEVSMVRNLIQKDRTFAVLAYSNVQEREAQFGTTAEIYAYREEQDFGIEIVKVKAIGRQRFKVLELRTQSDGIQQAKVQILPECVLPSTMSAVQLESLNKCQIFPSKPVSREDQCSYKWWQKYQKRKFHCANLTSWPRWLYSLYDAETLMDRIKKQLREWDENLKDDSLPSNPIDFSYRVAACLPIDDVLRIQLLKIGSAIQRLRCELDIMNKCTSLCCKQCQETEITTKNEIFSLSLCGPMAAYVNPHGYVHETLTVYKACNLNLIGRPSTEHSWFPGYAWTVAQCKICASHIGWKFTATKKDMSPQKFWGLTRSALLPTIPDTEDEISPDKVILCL
Assay: PROTAC activity at SARS-CoV-2 Main protease/CRBN (unknown origin) in SARS-CoV-2 infected african green monkey Vero cell assessed as inhibition of virus-mediated cytopathic effect measured after 72 hrs
Type: cell-based
MEASUREMENT_KIND: pEC50
Lab note — pEC50 values are minus log10 of concentrations in M.

Here are 2 molecules together with their reported answers.
- MOLECULE: "Cc1c(COC2CCC(OC(=O)N[C@@H](CC(C)C)C(=O)N[C@H](C=O)C[C@@H]3CCNC3=O)CC2)nnn1CCOCCNC(=O)CCC(=O)Nc1cccc2c1C(=O)N(C1CCC(=O)NC1=O)C2=O (stereo partly drawn)"
  pEC50: 6.21
- MOLECULE: "Cc1c(COC(=O)N[C@@H](CC(C)C)C(=O)N[C@@H](C[C@@H]2CCNC2=O)C(O)S(=O)(=O)O)nnn1CCOCCOCCOCCC(=O)Nc1cccc2c1C(=O)N(C1CCC(=O)NC1=O)C2=O (stereo partly drawn)"
  pEC50: 5.67

Now look at this entry.
Ask | Could you tell me which pEC50 is on file for CC(C)C[C@H](NC(=O)Oc1ccc(OCc2cn(CCCCCOCC(=O)Nc3cccc4c3C(=O)N(C3CCC(=O)NC3=O)C4=O)nn2)cc1)C(=O)N[C@H](CO)C[C@@H]1CCNC1=O (stereo partly drawn) ?
Reply | 6.60
